I'd be grateful if you could share measured Animals which died during the observation period, 1 day for these entries.
System: mice
RUN DESCRIPTION: Determination of acute toxicity
Type: in vivo
ASSAY CONDITIONS: 250 mg/kg oral; of 10 animals (A) or 5 animals (B, Y, Z)
Numbers only.

Query CN1C(C(=O)Nc2cncc(Cl)n2)=C(O)c2ccccc2S1(=O)=O [Compound A] yields Animals which died during the observation period, 1 day of 0

Query CN1C(C(=O)Nc2cnccn2)=C(O)c2ccccc2S1(=O)=O yields Animals which died during the observation period, 1 day of 1

Query CN1C(C(=O)Nc2cncc(Cl)n2)=C(O)c2ccccc2S1(=O)=O [Compound B] yields Animals which died during the observation period, 1 day of 0

Turning now to a further record.
Query CN1C(C(=O)Nc2ccccn2)=C(O)c2ccccc2S1(=O)=O yields Animals which died during the observation period, 1 day of 0

----------
Tested on: mice
RUN DESCRIPTION: Determination of acute toxicity
Format: in vivo
ASSAY CONDITIONS: 250 mg/kg oral; of 10 animals (A) or 5 animals (B, Y, Z)
I'd be grateful if you could share measured Animals which died during the observation period, 7 days for these entries.
Give bare numbers.

Consider the worked cases shown below.
Query CN1C(C(=O)Nc2cncc(Cl)n2)=C(O)c2ccccc2S1(=O)=O [Compound B] yields Animals which died during the observation period, 7 days of 0

Query CN1C(C(=O)Nc2cncc(Cl)n2)=C(O)c2ccccc2S1(=O)=O [Compound A] yields Animals which died during the observation period, 7 days of 0

Query CN1C(C(=O)Nc2ccccn2)=C(O)c2ccccc2S1(=O)=O yields Animals which died during the observation period, 7 days of 3

Turning now to a further record.
Query CN1C(C(=O)Nc2cnccn2)=C(O)c2ccccc2S1(=O)=O yields Animals which died during the observation period, 7 days of 4

----------
Test system: collagen-induced aggregation (platelet-rich plasma)
RUN DESCRIPTION: Born test, rat ex vivo, collagen-induced aggregation
Format: in vivo
ASSAY CONDITIONS: 0.05 mg/kg p.o., 1 hour after administration; optical density
ASSAY ENDPOINT: percentage inhibition of aggregation (%)
Numbers only, in %.

Consider the worked cases shown below.
Query CN1C(C(=O)Nc2cncc(Cl)n2)=C(O)c2ccccc2S1(=O)=O [C] yields percentage inhibition of aggregation of 96

Query CN1C(C(=O)Nc2cncc(Cl)n2)=C(O)c2ccccc2S1(=O)=O [F] yields percentage inhibition of aggregation of 77

Query CN1C(C(=O)Nc2cncc(Cl)n2)=C(O)c2ccccc2S1(=O)=O [D] yields percentage inhibition of aggregation of 97

Query CN1C(C(=O)Nc2cncc(Cl)n2)=C(O)c2ccccc2S1(=O)=O [E] yields percentage inhibition of aggregation of 87

# per-item lookup of percentage inhibition of aggregation; items listed below
1. CN1C(C(=O)Nc2cncc(Cl)n2)=C(O)c2ccccc2S1(=O)=O [G]
2. CN1C(C(=O)Nc2cncc(Cl)n2)=C(O)c2ccccc2S1(=O)=O [Compound B]

Result:
1. 92
2. 100
